B1: Twister Ribozyme (parent)
chain: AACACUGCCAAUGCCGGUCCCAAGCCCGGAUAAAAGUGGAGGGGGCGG

# Variants of: B1
# experiment: self-cleavage, relative activity (ratio to wild type); higher = more cleavage; co-transcriptional
Some variants, each annotated with its measured self-cleavage.
Would you mind answering with just the numeric figure?

Request: Report self-cleavage, nothing else, for this variant: G17C A35U
Response: 0.138

Request: Indicate the recorded self-cleavage value for this variant: U37C G39A
Response: 0.219

Request: Supply self-cleavage value. Item: C15A C26G
Response: 0.108

Request: For G45A C46G , write its self-cleavage.
Response: 0.856

Request: Specify self-cleavage for C5A A10U and stop.
Response: 0.39

Reference source: the RNAGym collection of RNA variant scans (doi:10.7554/elife.80360)
